For each record, write down the corresponding pKd.
Target: T1, cyno pro-myostatin (cynomolgus monkey, Biotinylated for capture in the SPR assay (site not stated). The native form is a disulfide-linked homodimer, partly furin-cleaved; one chain is given.)
T1 construct: also called proGDF8 (cynomolgus); cynomolgus monkey pro-myostatin
Assay: SPR Biacore 8K, biotin-antigen captured
FYI, pKd means -log10 of a concentration in mol per litre.

Quick check: pKd of Ab104 (antibody, human IgG4 S228P, kappa, V domains shown) VH: EVQLVESGGGLVQPGGSLRLSCAASGSAFSSYGMSWVRQAPGKGLELVASINSNGGSTYYPDSVKGRFTISRDNAKNSLYLQMNSLRAEDTAVYYCARDLLVKFLSWSHYYGMDVWGQGTTVTVSS VL: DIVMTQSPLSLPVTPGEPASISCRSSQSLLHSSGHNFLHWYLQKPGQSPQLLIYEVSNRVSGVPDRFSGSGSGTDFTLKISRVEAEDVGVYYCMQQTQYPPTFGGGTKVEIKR ?
10.12

Proceed to Ab129 (antibody, human IgG4 S228P, kappa, V domains shown) VH: QVQLVQSGAEVKKPGASVKVSCKVSGFNYPRSAIHWVRQAPGKGLEWMGGINPSGEATIYAQKFQGRVTMTEDTSTDTAYMELSSLKSEDTAVYYCARDSSPQWLVTAGVYFYGMDVWGQGTTVTVSS VL: DIQMTQSPSSVSASVGDRVTITCRASQSISNWLAWYQQKPGKAPKLLIYHASTLQSGVPSRFSGSGSGTDFTLTISSLQPEDFANYYCQQYSSTPWTFGGGTKVEIKR
8.89

Same thing, different binder: Ab107 (antibody, human IgG4 S228P, kappa, V domains shown) VH: EVQLVESGGGLVQPGGSLRLSCAASGSAFSSYGMSWVRQAPGKGLELVASINSNGGSTYYPDSVKGRFTISRDNAKNSLYLQMNSLRAEDTAVYYCARDQLVRFLEWSHYYGMDVWGQGTTVTVSS VL: DIVMTQSPLSLPVTPGEPASISCRSSQSLLHSSGHNFLHWYLQKPGQSPQLLIYAGSNRPSGVPDRFSGSGSGTDFTLKISRVEAEDVGVYYCAHATQLPHTFGGGTKVEIKR
10.27
